test: Quantitative High-Throughput drug screen in 47 multiple myeloma cell lines against the NCATS MIPE library collection: OPM1_PLB cell viability assay (AID 1918989); conditions: CellTiter-Glo, 48 h; series mostly up to 45.8 µM; further: nearly all actives have a fitted effect of over 40% in size; further: potency means the concentration at half of the fitted maximal effect
Records with an inconclusive call do not appear. The source made the active and inactive calls. The call rests on the fitted dose curve; in most records, active means well fitted cell-killing curve with a large enough effect; inconclusive means small, poorly fitted or top-dose-only effect, or effect the other way; inactive means no such curve, though single readings can be large or run the other way.
measurement label: Potency

{"molecule": "Cc1nnc(C(C)C)n1C1C[C@H]2CC[C@@H](C1)N2CC[C@H](NC(=O)C1CCC(F)(F)CC1)c1ccccc1 (stereo partly drawn)", "value reported": "inactive"}
{"molecule": "CC(C)C(C)C=CC(C)C1CCC2C3=CC=C4CC(O)CCC4(C)C3CCC21C (stereo not drawn)", "value reported": "inactive"}
{"molecule": "Clc1ccc(-c2nc3sccn3c2C=NOCc2ccc(Cl)c(Cl)c2)cc1", "value reported": "inactive"}
{"molecule": "Cc1ccc(F)c(NC(=O)Nc2ccc(-c3cccc4[nH]nc(N)c34)cc2)c1", "value reported": "10.5 µM (active)"}

Record summary for `CO[C@H]1C=CO[C@@]2(C)Oc3c(C)c(O)c4c(O)c(c5c(c4c3C2=O)NC2(CCN(CC(C)C)CC2)N=5)=NC(=O)C(C)=CC=C[C@H](C)[C@H](O)[C@@H](C)[C@@H](O)[C@@H](C)[C@H](OC(C)=O)[C@H]1C` : reported Potency = inactive

Record summary for `O=C(NCc1ccncc1)C12C[C@H]3C[C@@H](C1)CC(c1ccc(Cl)cc1)(C3)C2` : reported Potency = 18.7 µM (active)

Record summary for `CC(C)C(=O)Oc1ccc(CO)cc1[C@H](CCN(C(C)C)C(C)C)c1ccccc1` : reported Potency = inactive

Record summary for `Nc1nc(F)nc2c1ncn2[C@@H]1O[C@H](COP(=O)(O)O)[C@@H](O)[C@H]1O` : reported Potency = inactive
